Attribution: patent US20240351986A1

# tgt: T1, Recombinant human CDK9/cyclin T1 (Homo sapiens, UniProt P50750)
# T1 construct: purchased Carna bioscience 04-110
# method_description: CDK9 enzyme inhibitory activity (ADP-Glo kinase assay)
# Assay type: biochemical
# settings: CDK9 enzyme activity; compound 10 nM; average of two independent repeats; read-out: Inhibition rate at different concentrations (%) 10 nM
// inhibition at 0.01 µM lookup, one value per entry
The response must be a number in % with no trailing unit.

CC(=O)NC1CCC(NC(=O)Nc2cc(-c3cnn4c3CC(C)(C)C4)c(F)cn2)CC1 (stereo not drawn)	60.2
CC(=O)NC1CCC(NC(=O)Nc2cc(-c3cnn4c3CCC4)c(Cl)cn2)CC1 (stereo not drawn)	39.5
CN(C)C1CCC(NC(=O)Nc2cc(-c3cnn4c3CC(C)(C)C4)c(Cl)cn2)CC1 (stereo not drawn)	63.7
COCCN[C@H]1CC[C@H](NC(=O)Nc2cc(-c3ccc(F)cc3OC)ccn2)CC1	50.2
COc1cc(F)ccc1-c1cc(NC(=O)NC2CCC(NCCO)CC2)ncc1Cl (stereo not drawn)	38.9

Next compound, inhibition at 0.01 µM to be filled in.
Measured inhibition at 0.01 µM of COc1cc(F)ccc1-c1ccnc(NC(=O)NC2CCC(NC(C)=O)CC2)c1 (stereo not drawn) : 45.1
